# protocolDescription: yeast display, Sf9 membrane polyspecificity reagent, FACS + sequencing; frameworks hold sequencing errors

# seq, polyreactivity (PSR sort gate)
records = [
    ("QVQLVESGGGLVQAGGSLRLSCAASGFTFAYAMGWYRQAPGKERELVAAISFSGGSTYYADSVKGRFTISRDNAKNTVYLQMNSLKPEDTAVYYCNKRGGKRSTMDYWGHGTQVTVSS", "low polyreactivity"),
    ("QVQLEESGGGLVQAGGSLRLSCAASGRISGFNAMGWYRKAPGKEREFVAAISYRGGYTYADSVKGRFTISRDNAKNTVYLQMNSLKPEDTAVYYCNALWRGHGRYNYWGQGTQVNVSS", "low polyreactivity"),
    ("QVQLVESGGGLVQAGGSLRLSCAASGRIFPRYAMGWYRQATGKERELVATISSGGSTYYADSVKGRFTISRDNAKNTVYLQMNSLKPEDTAVYYCAARKRPYTVINGMDYWGQGTQVTVSS", "low polyreactivity"),
    ("QVQLVESGGGLVQAGGSLRLSCAASGSIFHPYGMGWYRQAPGKERELVAAITSSGGDKYYADSVKGRFTISRDNAKNTVYLQMNSLKPEDTAVYYCAATGLPGYYAYDYWGQGTQVTVSS", "low polyreactivity"),
    ("QVQLVDSGGGLVQAGGSLRLSCAASGNTFVTYTMGWYRQAPGKERELVADISSGGSTYYADSVKGRFTISRDNAKNTVYLQMYSLKPEDTAVYYCAVLQAVFRSYYIYHRYYWGQGTKVTVSS", "high polyreactivity"),
    ("QVQLVESGGGLVQAGGSLRLSCAASGSTFTPYVMGWYRQAPGKERELVASITGGGGSTYADSVKGRFTISRDNAKNTVYLQMNSLKPEDTAVYYCGARVWRSYNYWGQGTQVTVSS", "high polyreactivity"),
    ("QVHLVESGGGLVQAGGSLRLICAASGSTFLYYAKGWYRQAPGNEMELVAANSQSSASTYYADSVKGRFTISRDNAKTTIYFQIISLKPEDTAVYYCAADYWSVPYIYEYWRQGTQVTVSS", "high polyreactivity"),
    ("QVQLVESGGGLVQAGGSLRLSCAASGSILYYNAMGWYRQAHGKEREFVASISLTGGSTTYADSVKGRFTISRDNAKNTVYLQMNSLKPEDTAVYYCNATHYPAADRSTNNYGGGFDYWGEGTQVTVSS", "low polyreactivity"),
    ("QVQLVESGGGLVQAGGSLRLSCAASGRIFDHNAMGWYRQAPGKERELVAAIDSGTSTNYADSVKGRFTISRDNAKNTVYLQMNSLKPEDTAVYYCARLLGPVRDKYDYDYWGQGTQVTVSS", "low polyreactivity"),
    ("QVQIVESGGGLVQAGGSLRLTCAASGLISTYYVMGWYRQAPGKERELVAAIRASDASTYYADSVKGRFTISRDNAKNTVYLQMNSLKPEDTAVYYCATDSYYVDDTEYDYWGQGTQVTVSS", "low polyreactivity"),
    ("QVQLVESCGGLVQAGGSLRLSFAASGSILVRYAMGWYRQAPGKERELVAAITSGGSTYADSVKGRFTISRDNAKNTVYLQMNSLKPEDTAVYYCAADAYGYGGDSWGQGTLVTVSS", "low polyreactivity"),
    ("QVQLVESGGGLVQAGGSLRLSCDASGRTFYFYVMGWYRQAPGKERELVARISWSGGSTYYADSVKGRFTISRDNAKNTVYLQMNSLKPEDTAVYYCARQYKYPSSGEYDSWGQGTQVTVSS", "low polyreactivity"),
    ("QVQLVESGGGLVQAGGSLRLSCAASGYTFALYAMGWYRQAPGKERELVAAITWNGGSTYYADSVKGRFTISRDNAKNTVYLQMNSLKPEDTSVYYCNVESSQSSSGFDYWGQGTQVTVSL", "low polyreactivity"),
    ("QVQLVESGGGLVQAGGSLRLSCAASGFIFRVNAMGWYRQAPGKERELVATITWNGGSTYYADSVKGRFTISRDNAKNTVYLQMNSLKPEDTAVYYCNRVRYRGYYPGPYSYSYDYWGQGTQVTVSS", "low polyreactivity"),
    ("QVQLVESGGGLVQAGGSLRLSCAASGRTFAYYAMGWYRQAPGKERELVAAITRGGSTYYADSVKGRFTISRDNAKNTVYLQMNSLKPEDTAVYYCATLYTRYDSYLVKGKYGYWGQGTQVIVSS", "high polyreactivity"),
    ("QVQLVESGGGLVQAGGSLRLSCAASGSTFYIYGMGWYRQAPGKERELVAAISQRDGSTYYADSEKGRFTSSRDNAKNTVYLQMNSLKPEDTAVYYCNAGLWYSSYDSDYWGQGTQVTVSS", "low polyreactivity"),
    ("QVQLVESGGGLVQAGGSLRLSCAASGRISGYNAMGWYRPAPGKQRELVAVITGSGGTYYADSVKGRFTISRDNAKNTVYLQMNSLKPEDSAVYYCAAGLAIRTYYPRYDYWGQGTQVTVSS", "low polyreactivity"),
    ("QVQLVESGGGLVQAGGSLRLSCAASGRIFSAYAMGWYRQAPGKEREFVAAISSRGGSTNYADSVKGRFTISRDNANNTVYLHMNSLKPEDTAVYYCNARYVQWYWIGKVIHIDNDYWGQGTQVNVSS", "low polyreactivity"),
    ("QVQLEESGGGLVQAGGILRLSCAASGFIIRRNALGLYRKAAGQERELVATIRASGGRTYYADSVKGRFTISRDNAKNTVYLQMNSVKPEDTAVYYCAAFRWYKPHDYWGQGTQVTVSS", "high polyreactivity"),
    ("QVQLVESGGGLVQAGGSLPLSCAASGFIFGTNTMGWYRQAPGKEREMVAAITSVGSTNYADSVKGRFTISRDNAKNTVYLQMNSLKPEDTAVYYCPATLYYQYGGDYWGQGTQVTVSS", "low polyreactivity"),
    ("QVQLVESGGGLLQAGGSLRLSCAASGSIFERNAIGWYRQAPGKERELVAVITRSGGSTYYADSVKGRFTISRDNAKNTVYLQMNSLKREDTAVYYCNARTAYFYGLDYWGQGTQVTVSS", "high polyreactivity"),
]
